Values from patent US12116424B2

So I've got a bunch of molecules here, and I need their Emax values.
biological target: L. monocytogenes AgrC (Listeria monocytogenes serovar 1/2a, UniProt Q8YAR5); assay: Fluorescence (agr-GFP) reporter agonism assay, ΔagrD reporter strain; assay type: cell-based; conditions: read-out: Max Activation
Sequence (Q8YAR5 entry or part of it): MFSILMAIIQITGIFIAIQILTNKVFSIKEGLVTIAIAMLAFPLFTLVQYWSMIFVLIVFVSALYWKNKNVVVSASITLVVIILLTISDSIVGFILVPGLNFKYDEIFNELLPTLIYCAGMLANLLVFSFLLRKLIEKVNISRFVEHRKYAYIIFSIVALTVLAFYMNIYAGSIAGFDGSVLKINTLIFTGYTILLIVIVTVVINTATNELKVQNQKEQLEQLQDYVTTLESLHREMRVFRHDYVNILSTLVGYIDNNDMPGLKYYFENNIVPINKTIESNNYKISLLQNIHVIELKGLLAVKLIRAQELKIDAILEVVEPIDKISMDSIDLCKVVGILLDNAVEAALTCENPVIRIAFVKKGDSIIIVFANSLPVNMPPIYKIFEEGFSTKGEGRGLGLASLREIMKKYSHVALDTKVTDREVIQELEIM
Where a SMILES comes first, the peptide text is derived from it. Bridges are numbered along the chain shown (N, C = ends).
// units = %; emit number, no label

Query: For CSCC[C@@H]1NC(=O)[C@H](CO)NC(=O)[C@@H](NC(=O)[C@H](C)N)CSC(=O)[C@H](C(C)C)NC(=O)[C@H](Cc2ccccc2)NC1=O [Lm AIP F3S, A-(C-S-M-F-V)] (H-ACSMFV; thioester 2-C; N-terminus assumed) , what is its reported Emax?
Reply: 16.1

Query: For CC(=O)N[C@H]1CSC(=O)[C@H](C(C)C)NC(=O)[C@H](Cc2ccccc2)NC(=O)CNC(=O)[C@H](C(C)C)NC1=O [L. grandensis tr AIP, Ac-(C-V-G-F-V), reference compound] (Ac-CVGFV; thioester 1-C) , what is its reported Emax?
Reply: 10.1

Query: For CC(C)C[C@@H]1NC(=O)CNC(=O)[C@H](C(C)C)NC(=O)[C@@H](NC(=O)[C@@H](N)CO)CSC(=O)[C@H](CO)NC1=O [L. kieliensis AIP, S-(C-V-G-L-S), reference compound] (H-SCVGLS; thioester 2-C; N-terminus assumed) , what is its reported Emax?
Reply: 10.4

Query: For CC[C@H](C)[C@@H]1NC(=O)[C@H](Cc2ccccc2)NC(=O)[C@H](Cc2ccc(O)cc2)NC(=O)[C@@H](NC(=O)[C@@H](NC(=O)[C@H](CO)NC(=O)[C@@H](N)Cc2ccc(O)cc2)[C@@H](C)O)CSC(=O)[C@H](CCSC)NC1=O [Sa AIP-IV, Y-S-T-(C-Y-F-I-M), reference compound] (H-YSTCYFIM; thioester 4-C) , what is its reported Emax?
Reply: 9.81

Query: For CC(C)[C@H](NC(=O)[C@H](CO)NC(=O)[C@@H](N)CC(=O)O)C(=O)N[C@H]1CSC(=O)[C@H](Cc2ccccc2)NC(=O)[C@H](Cc2ccc(O)cc2)NC(=O)[C@H](CO)NC(=O)[C@H](C)NC1=O [Se AIP-I, D-S-V-(C-A-S-Y-F), reference compound] (H-DSVCASYF; thioester 4-C) , what is its reported Emax?
Reply: 8.65

Query: For CSCC[C@H](NC(=O)[C@H](CO)NC(=O)[C@H](CO)NC(=O)[C@@H](N)CC(=O)O)C(=O)N[C@@H](CO)C(=O)N[C@@H](CCCCN)C(=O)N[C@@H](C)C(=O)N[C@H]1CSC(=O)[C@H](C(C)C)NC(=O)[C@H](Cc2ccccc2)NC(=O)[C@H](CCSC)NC(=O)[C@H](Cc2ccccc2)NC1=O [Compound 12-mer, D-S-S-M-S-K-A-(C-F-M-F-V)] (H-DSSMSKACFMFV; thioester 8-C; N-terminus assumed) , what is its reported Emax?
Reply: 116

Query: For CSCC[C@@H]1NC(=O)[C@H](Cc2ccccc2)NC(=O)[C@@H](NC(=O)[C@H](C)NC(=O)[C@H](CCCCN)NC(=O)[C@@H](N)CO)CSC(=O)[C@H](C(C)C)NC(=O)[C@H](Cc2ccccc2)NC1=O [Compound 8-mer, S-K-A-(C-F-M-F-V)] (H-SKACFMFV; thioester 4-C; N-terminus assumed) , what is its reported Emax?
Reply: 71.5

Query: For CC(C)C[C@@H]1NC(=O)[C@H](CO)NC(=O)[C@H](CO)NC(=O)[C@@H](NC(=O)[C@H](C)NC(=O)[C@H](CC(N)=O)NC(=O)[C@@H](NC(=O)CN)C(C)C)CSC(=O)[C@H](Cc2ccccc2)NC1=O [Sa AIP-II, G-V-N-A-(C-S-S-L-F), reference compound] (H-GVNACSSLF; thioester 5-C) , what is its reported Emax?
Reply: 12
